test: Cytotoxicity against human KB-3-1 cells by resazurin reduction assay; format: functional, cell-based
PROPERTY: IC50 (nM)
Express it in nM; write the number only.

COc1ccc(C[C@H]2NC(=O)/C=C/C[C@@H]([C@H](C)[C@H]3O[C@@H]3c3ccccc3)OC(=O)[C@H](CC(C)C)OC(=O)[C@H](CCCN=[N+]=[N-])CNC2=O)cc1Cl    0.112
COc1ccc(C[C@H]2NC(=O)/C=C/C[C@@H]([C@H](C)[C@H]3O[C@@H]3c3ccccc3)OC(=O)[C@H](CC(C)C)OC(=O)[C@@H](CCCN=[N+]=[N-])CNC2=O)cc1Cl    11.5
COc1ccc(C[C@H]2NC(=O)/C=C/C[C@@H]([C@H](C)[C@H]3O[C@@H]3c3ccccc3)OC(=O)[C@H](CC(C)C)OC(=O)[C@@H](CCCn3cc(C(C)(C)O)nn3)CNC2=O)cc1Cl    0.312

Reported IC50 for COc1ccc(C[C@H]2NC(=O)/C=C/C[C@@H]([C@H](C)[C@H]3O[C@@H]3c3ccccc3)OC(=O)[C@H](CC(C)C)OC(=O)C(C)(C)CNC2=O)cc1Cl [CRYPTOPHYCIN 52] was 0.0155

Reported IC50 for C=CCOC(=O)CCC[C@@H]1CNC(=O)[C@@H](Cc2ccc(OC)c(Cl)c2)NC(=O)/C=C/C[C@@H]([C@H](C)[C@H]2O[C@@H]2c2ccccc2)OC(=O)[C@H](CC(C)C)OC1=O was 0.433

---

experiment: Cytotoxicity against human KBV1 cells by resazurin reduction assay; type: functional, cell-based; details: KB-V1
PROPERTY: pIC50
For clarity, pIC50 is expressed as the negative log10 of concentration in mol/L.

Worked examples, 8 molecules total:
COc1ccc(C[C@H]2NC(=O)/C=C/C[C@@H]([C@H](C)[C@H]3O[C@@H]3c3ccccc3)OC(=O)[C@H](CC(C)C)OC(=O)C(C)(C)CNC2=O)cc1Cl    9.59
C=CCOC(=O)C[C@H]1CNC(=O)[C@@H](Cc2ccc(OC)c(Cl)c2)NC(=O)/C=C/C[C@@H]([C@H](C)[C@H]2O[C@@H]2c2ccccc2)OC(=O)[C@H](CC(C)C)OC1=O    8.22
COc1ccc(C[C@H]2NC(=O)/C=C/C[C@@H]([C@H](C)[C@H]3O[C@@H]3c3ccccc3)OC(=O)[C@H](CC(C)C)OC(=O)[C@H](CCCn3cc(C(C)(C)O)nn3)CNC2=O)cc1Cl    6.39
C=CCOCCC[C@H]1CNC(=O)[C@@H](Cc2ccc(OC)c(Cl)c2)NC(=O)/C=C/C[C@@H]([C@H](C)[C@H]2O[C@@H]2c2ccccc2)OC(=O)[C@H](CC(C)C)OC1=O    7.42
C=CCOCCC[C@@H]1CNC(=O)[C@@H](Cc2ccc(OC)c(Cl)c2)NC(=O)/C=C/C[C@@H]([C@H](C)[C@H]2O[C@@H]2c2ccccc2)OC(=O)[C@H](CC(C)C)OC1=O    7.58
COc1ccc(C[C@H]2NC(=O)/C=C/C[C@@H]([C@H](C)[C@H]3O[C@@H]3c3ccccc3)OC(=O)[C@H](CC(C)C)OC(=O)[C@H](CCN=[N+]=[N-])CNC2=O)cc1Cl    8.68
COc1ccc(C[C@H]2NC(=O)/C=C/C[C@@H]([C@H](C)[C@H]3O[C@@H]3c3ccccc3)OC(=O)[C@H](CC(C)C)OC(=O)[C@H](CCCN=[N+]=[N-])CNC2=O)cc1Cl    7.74
COc1ccc(C[C@H]2NC(=O)/C=C/C[C@@H]([C@H](C)[C@H]3O[C@@H]3c3ccccc3)OC(=O)[C@H](CC(C)C)OC(=O)[C@@H](CCCn3cc(C(C)(C)O)nn3)CNC2=O)cc1Cl    5.52

Reported pIC50 for COc1ccc(C[C@H]2NC(=O)/C=C/C[C@@H]([C@H](C)[C@H]3O[C@@H]3c3ccccc3)OC(=O)[C@H](CC(C)C)OC(=O)[C@H](CCCCN=[N+]=[N-])CNC2=O)cc1Cl was 7.63

Reported pIC50 for COc1ccc(C[C@H]2NC(=O)/C=C/C[C@@H]([C@H](C)[C@H]3O[C@@H]3c3ccccc3)OC(=O)[C@H](CC(C)C)OC(=O)[C@@H](CCCN=[N+]=[N-])CNC2=O)cc1Cl was 6.94
